These measurements were taken from patent US20220267458A1.

What Sample OD (+) was measured for each of the following?
# TARGET_ENTITY: T1, human GITR-His (human, UniProt Q9Y5U5 26-161)
# T1 construct: Bought from Acro biosystems; also called GITR-His (Acro biosystems); antigen GITR-His
# T1 sequence: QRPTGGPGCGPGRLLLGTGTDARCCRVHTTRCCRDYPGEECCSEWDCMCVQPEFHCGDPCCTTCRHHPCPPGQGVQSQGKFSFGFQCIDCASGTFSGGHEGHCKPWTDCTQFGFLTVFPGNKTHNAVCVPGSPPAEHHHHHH
# EXPERIMENT_NOTES: PE-ELISA, crude nanobody on coated GITR-His, anti-HA detection

// query If you can, please state the reported Sample OD (+) value of Nb-10 (VHH, Tested as crude extract from E. coli (osmotic shock)) VHH: QVQLQESGGGLVQPGGSLRLSCAASGFAFGSSHMSWVRRAPGKGLEWVSTIHSGGGFGDYANSVQGRFTISRDVAKNTLYLQMNSLKPEDTAIYYCALATDWRKPPGQGTQVTVSS .
// result 2.27 OD (405 nm)

// query If you can, please state the reported Sample OD (+) value of Nb-04 (VHH, Tested as crude extract from E. coli (osmotic shock)) VHH: QVQLQESGGGSVQAGGSLRLSCTASGFTVDDSGMGWYRQAPGNECELVSTISSDGSTYYADSVKGRFTISQDNAKNTVYLQMNSLKPEDTAVYYCAAPRVGVGWVRPCDYEYNYWGQGTQVTVSS .
// result 1.63 OD (405 nm)

// query If you can, please state the reported Sample OD (+) value of Nb-13 (VHH, Tested as crude extract from E. coli (osmotic shock)) VHH: QVQLQESGGGSVQAGGSLRLSCTASSNTGRMGWFRQAPGKEREGVTAVDNFGRTNYAKYVKGRFTISKDNAKNTLYLQMNSLKPEDTAMYYCAADPWGRGAALTPNEYIYWGQGTQVTVSS .
// result 0.263 OD (405 nm)

// query If you can, please state the reported Sample OD (+) value of Nb-07 (VHH, Tested as crude extract from E. coli (osmotic shock)) VHH: QVQLQESGGGLVQAGGSLKLSCTVSGFAFGSSHMSWVRRAPGKGLEWVSTIHSGGGFGDYANSVQGRFTISRDVAKNTLYLQMNSLKPEDTAIYYCALATDWRKPPGQGTQVTVSS .
// result 2.35 OD (405 nm)

// query If you can, please state the reported Sample OD (+) value of Nb-20 (VHH, Tested as crude extract from E. coli (osmotic shock)) VHH: QVQLQESGGGSVQAGGSLRLSCASSGYSRTSRWMAWFRQAPGKEREGVAAIYTGGSSTLYANSMADRVTISQDNAKNTVYLRMNNLKPEDTAMYYCAADKLAGDFWLVDRWRAWGQGTQVTVSS .
// result 1.41 OD (405 nm)

// query If you can, please state the reported Sample OD (+) value of Nb-19 (VHH, Tested as crude extract from E. coli (osmotic shock)) VHH: QVQLQESGGGSVQAGGSLRLSCAASGFTYSNYCMAWFRQAPGKEREGVAAIDSDGSTSYADSVKGRFTISQDNAKNTLYLQMNSLKPEDTAMYYCAAGNKKPYQLCNTDSRRYYHWGQGTQVTVSS .
// result 1.32 OD (405 nm)

// query If you can, please state the reported Sample OD (+) value of Nb-15 (VHH, Tested as crude extract from E. coli (osmotic shock)) VHH: QVQLQESGGGSVQAGGSLRLSCVVFGNIFRNYCMAWFRQAPGKEREGVVVIYTGGGSTYYADSVKGRFTISQDNAKNTVYLQMNSLKHEDTAMYYCAADQTTRYSSDYVNVGPCDMDSWGKGTQVTVSS .
// result 1.25 OD (405 nm)

// query If you can, please state the reported Sample OD (+) value of Nb-09 (VHH, Tested as crude extract from E. coli (osmotic shock)) VHH: QVQLQESGGGLVQPGGSLRLSCGASGFTFSSTAMWWFRQAPGKGLEWVSSITSDVSGTYYADSVQGRFTISRDNGKNTVYLQMNSLRSEDTALYYCATSCGFSGGTWSCKYRGQGTQVTVSS .
// result 1.45 OD (405 nm)

// query If you can, please state the reported Sample OD (+) value of Nb-01 (VHH, Tested as crude extract from E. coli (osmotic shock)) VHH: QVQLQESGGGLVQPGGSLRLSCTASGLTFDDYAMGWFRQAPGKGREGVSLITWSGSSTYYADSVKGRFTVSRDTATNTLVLQMNSLKPEDTAMYYCAADPRSGGYYSSPPPPAVYRYLRFWGQGTQVTVSS .
// result 0.467 OD (405 nm)

// query If you can, please state the reported Sample OD (+) value of Nb-05 (VHH, Tested as crude extract from E. coli (osmotic shock)) VHH: QVQLQESGGGLVQPGGSLRLSCAASGFTFSNKVMSWVRQAPGKGFEWVSSIARGGDWTTYADSVEGRFTISRDNAKNTLYLQLNSLKTEDTAMYYCAQAENWKTPPGQGTQVTVSS .
// result 1.41 OD (405 nm)
